# assayed.system: Bromodomain-containing protein 4 (Homo sapiens)
# method.summary: Displacement of fluorescein-labeled MS574 from recombinant human BRD4 BrD2 after 1 hr by fluorescence anisotropy assay
experimental.readout: Ki (µM)

> print(dat)
                                 smiles.code  units.label  result.operator  assay.value
 1  O=S(=O)(Nc1ccccn1)c1ccc(/N=N/c2ccc(O)c(Br)c2)cc1           µM                =         4.69
 2  Cc1cc(/N=N/c2ccc(S(=O)(=O)N(C)c3ccccn3)cc2)cc(C)c1O           µM                =         7.12
 3  Cc1nc(/N=N/c2ccc(S(=O)(=O)Nc3ccccn3)cc2)c(C)c(C)c1O           µM                =          9.1
 4  Cc1cc(/N=N/c2ccc(S(=O)(=O)Nc3ccc(Cl)cn3)cc2)cc(C)c1O           µM                =         5.84
 5  Cc1cc(/N=N/c2ccc(S(=O)(=O)NCc3ccc(C(F)(F)F)cc3)cc2)cc(C)c1O           µM                >          100
 6  COc1cc(/N=N/c2ccc(S(=O)(=O)Nc3ccccn3)cc2)c(N)cc1O           µM                =         5.39
 7  Cc1cc(C)c(S(=O)(=O)O)cc1/N=N/c1cc(C)c(O)c(C)c1           µM                =         6.37
 8  Cc1cc(/N=N/c2cccc(S(=O)(=O)Nc3ccccn3)c2)cc(C)c1O           µM                =         40.4
 9  Cc1cc(/N=N/c2ccc(S(=O)(=O)Nc3ccc(F)cn3)cc2)cc(C)c1O           µM                =         3.44
10  Cc1cc(/N=N/c2ccc(S(=O)(=O)Nc3ccc(C(N)=O)cc3)cc2)cc(C)c1O           µM                =         12.2

---

# assayed.system: Bromodomain-containing protein 4 (Mus musculus, UniProt Q9ESU6)
# method.summary: Inhibition of BRD4 in LPS-stimulated mouse RAW264.7 cells assessed as inhibition of NF-kappaB-mediated IL-6 expression preincubated for 30 mins followed by LPS stimulation measured after 24 hrs by ELISA
# Format: cell-based
// IC50 lookup, one value per entry
experimental.readout: IC50

> print(dat)
                                smiles.code  assay.value
1  Cc1cc(/N=N/c2ccc(S(=O)(=O)Nc3ccccn3)cc2)c(N)c(C)c1O      23.2 µM
2  Cc1cc(/N=N/c2ccc(S(=O)(=O)Nc3ccccn3)cc2)cc(C)c1O        16 µM
3  Cc1cc(/N=N/c2ccc(S(=O)(=O)Nc3ccccn3)cc2)c(N)c(Cl)c1O       3.8 µM
4  Cc1cc(/N=N/c2ccc(S(=O)(=O)Nc3ccccn3)cc2)c(N)cc1O       4.9 µM

---

# assayed.system: Bromodomain-containing protein 4 (Mus musculus)
# method.summary: Inhibition of BRD4 in LPS-stimulated mouse RAW264.7 cells assessed as inhibition of NF-kappaB-mediated nitric oxide production preincubated for 30 mins followed by LPS stimulation measured after 24 hrs by spectrophotometric analysis
# Assay type: cell-based
experimental.readout: IC50

> print(dat)
                                smiles.code  assay.value
1  Cc1cc(/N=N/c2ccc(S(=O)(=O)Nc3ccccn3)cc2)c(N)c(Cl)c1O       3.4 µM
2  Cc1cc(/N=N/c2ccc(S(=O)(=O)Nc3ccccn3)cc2)cc(C)c1O      46.3 µM
3  Cc1cc(/N=N/c2ccc(S(=O)(=O)Nc3ccccn3)cc2)c(N)cc1O       3.8 µM
4  Cc1cc(/N=N/c2ccc(S(=O)(=O)Nc3ccccn3)cc2)c(N)c(C)c1O      38.1 µM

---

# assayed.system: Bromodomain-containing protein 4 (Mus musculus)
# method.summary: Inhibition of BRD4 in LPS-stimulated mouse RAW264.7 cells assessed as inhibition of NF-kappaB-mediated IL-6 expression preincubated for 30 mins followed by LPS stimulation measured after 24 hrs by ELISA
# Assay type: cell-based
experimental.readout: inhibition

> print(dat)
                                smiles.code  experimental.readout            assay.value
1  Cc1cc(/N=N/c2ccc(S(=O)(=O)Nc3ccccn3)cc2)cc(C)c1O            inhibition  Dose-dependent effect
2  Cc1cc(/N=N/c2ccc(S(=O)(=O)Nc3ccccn3)cc2)c(N)c(C)c1O            inhibition  Dose-dependent effect
3  Cc1cc(/N=N/c2ccc(S(=O)(=O)Nc3ccccn3)cc2)c(N)c(Cl)c1O            inhibition  Dose-dependent effect
4  Cc1cc(/N=N/c2ccc(S(=O)(=O)Nc3ccccn3)cc2)c(N)cc1O            inhibition  Dose-dependent effect

---

# assayed.system: Bromodomain-containing protein 4 (Homo sapiens, UniProt O60885)
# method.summary: Displacement of fluorescein-labeled MS574 from recombinant human BRD4 BrD2 after 1 hr by fluorescence anisotropy assay
// Ki lookup, one value per entry
experimental.readout: Ki

> print(dat)
                                 smiles.code  assay.value
 1  Cc1cc(/N=N/c2ccc(S(=O)(=O)Nc3ccc(C(=O)O)cn3)cc2)cc(C)c1O      1.38 µM
 2  Cc1cc(/N=N/c2ccc(S(=O)(=O)Nc3ccccn3)cc2)nc(C)c1O      24.6 µM
 3  COc1ccc(NS(=O)(=O)c2ccc(/N=N/c3cc(C)c(O)c(C)c3)cc2)nc1      2.23 µM
 4  Cc1cc(/N=N/c2ccc(S(=O)(=O)Nc3ccc(F)cc3)cc2)cc(C)c1O      8.87 µM
 5  Cc1cc(/N=N/c2ccc(S(=O)(=O)Nc3ccccn3)cc2)cc(O)c1O      3.27 µM
 6  COc1ccc(NS(=O)(=O)c2ccc(/N=N/c3cc(C)c(O)c(C)c3)cc2)cc1      6.59 µM
 7  Cc1cc(/N=N/c2cc(S(=O)(=O)O)c(C)cc2C)c(N)cc1O      19.7 µM
 8  O=S(=O)(Nc1ccccn1)c1ccc(/N=N/c2cc(Br)c(O)c(Br)c2)cc1      4.29 µM
 9  Cc1cc(/N=N/c2ccc(S(=O)(=O)Nc3ccccn3)cc2)c(N)c(C)c1O      0.44 µM
10  Cc1cc(/N=N/c2ccc(S(=O)(=O)Nc3ccccn3)cc2)cc(Cl)c1O      4.81 µM
11  Cc1cc(/N=N/c2ccc(S(=O)(=O)Nc3cc(Cl)ccn3)cc2)cc(C)c1O      5.92 µM
12  O=S(=O)(Nc1ccccn1)c1ccc(/N=N/c2ccc(O)c(O)c2)cc1      3.91 µM

---

// pKi lookup, one value per entry
# assayed.system: Bromodomain-containing protein 3 (Homo sapiens)
# Sequence (Q15059 whole entry): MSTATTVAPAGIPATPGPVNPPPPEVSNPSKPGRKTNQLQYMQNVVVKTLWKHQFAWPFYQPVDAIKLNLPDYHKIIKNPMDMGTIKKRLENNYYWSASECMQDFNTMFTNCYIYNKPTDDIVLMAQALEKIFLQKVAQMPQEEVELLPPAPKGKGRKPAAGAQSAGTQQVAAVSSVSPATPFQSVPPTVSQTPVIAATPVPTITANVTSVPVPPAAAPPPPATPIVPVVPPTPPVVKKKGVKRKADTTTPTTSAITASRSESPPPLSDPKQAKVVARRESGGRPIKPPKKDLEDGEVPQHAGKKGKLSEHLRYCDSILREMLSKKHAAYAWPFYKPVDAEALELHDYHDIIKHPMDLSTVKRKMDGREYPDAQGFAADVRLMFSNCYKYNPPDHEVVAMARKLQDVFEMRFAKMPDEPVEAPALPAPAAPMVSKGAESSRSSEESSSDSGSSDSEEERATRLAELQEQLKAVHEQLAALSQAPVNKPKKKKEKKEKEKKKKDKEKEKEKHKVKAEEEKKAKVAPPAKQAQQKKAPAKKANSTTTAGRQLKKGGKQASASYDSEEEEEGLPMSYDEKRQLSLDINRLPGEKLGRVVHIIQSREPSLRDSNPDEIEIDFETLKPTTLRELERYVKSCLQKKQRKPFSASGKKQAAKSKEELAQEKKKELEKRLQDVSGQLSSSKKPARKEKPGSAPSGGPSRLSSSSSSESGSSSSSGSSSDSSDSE
# method.summary: Displacement of fluorescein-labeled MS574 from recombinant human BRD3 BrD1 after 1 hr by fluorescence anisotropy assay
pKi: −log10 of the molar value.
experimental.readout: pKi

> print(dat)
                                smiles.code                            assayed.system  assay.value
1  Cc1cc(/N=N/c2ccc(S(=O)(=O)Nc3ccccn3)cc2)c(N)cc1O  Bromodomain-containing protein 3 (Homo sapiens)         7.00
2  Cc1cc(/N=N/c2ccc(S(=O)(=O)Nc3ccccn3)cc2)c(N)c(C)c1O  Bromodomain-containing protein 3 (Homo sapiens)         6.54
3  Cc1cc(/N=N/c2ccc(S(=O)(=O)Nc3ccccn3)cc2)c(N)c(Cl)c1O  Bromodomain-containing protein 3 (Homo sapiens)         6.62
4  Cc1cc(/N=N/c2ccc(S(=O)(=O)Nc3ccccn3)cc2)cc(C)c1O  Bromodomain-containing protein 3 (Homo sapiens)         5.79

---

# assayed.system: Bromodomain-containing protein 4 (Homo sapiens, UniProt O60885)
# method.summary: Displacement of fluorescein-labeled MS574 from recombinant human BRD4 BrD1 after 1 hr by fluorescence anisotropy assay
# reported.conditions: read-out: Ki
pKi: −log10 of the molar value.
// pKi lookup, one value per entry
experimental.readout: pKi

> print(dat)
                                 smiles.code  experimental.readout  assay.value
 1  Cc1cc(/N=N/c2ccc(S(=O)(=O)Nc3ccc(F)cc3)cc2)cc(C)c1O                   pKi         5.74
 2  Cc1cc(/N=N/c2ccc(S(=O)(=O)Nc3ccccn3)cc2)cc(O)c1O                   pKi         5.62
 3  Cc1cc(/N=N/c2ccc(S(=O)(=O)Nc3cccc(C(F)(F)F)c3)cc2)cc(C)c1O                   pKi         5.21
 4  Cc1cc(/N=N/c2ccc(S(=O)(=O)Nc3ccc(F)cn3)cc2)cc(C)c1O                   pKi         5.89
 5  Cc1cc(/N=N/c2ccc(S(=O)(=O)Nc3ccc(C(F)(F)F)cc3)cc2)cc(C)c1O                   pKi         4.97
 6  O=S(=O)(Nc1ccccn1)c1ccc(/N=N/c2ccc(O)c(Br)c2)cc1                   pKi         5.33
 7  Cc1cc(/N=N/c2ccc(S(=O)(=O)N(C)c3ccccn3)cc2)cc(C)c1O                   pKi         5.10
 8  Cc1cc(/N=N/c2ccc(S(=O)(=O)Nc3ccccn3)cc2)ccc1O                   pKi         5.19
 9  Cc1cc(/N=N/c2ccc(S(=O)(=O)Nc3ccc(C(=O)O)cn3)cc2)cc(C)c1O                   pKi         6.49
10  Cc1cc(/N=N/c2ccc(S(=O)(=O)Nc3ccccn3)cc2)nc(C)c1O                   pKi         5.64
11  O=S(=O)(Nc1ccccn1)c1ccc(/N=N/c2ccc(O)c(C(F)(F)F)c2)cc1                   pKi         5.02
12  COc1ccc(NS(=O)(=O)c2ccc(/N=N/c3cc(C)c(O)c(C)c3)cc2)nc1                   pKi         6.30
